system: Escherichia coli ATCC 25922; assay type: cell-based; conditions: ATCC 25922, 16 h
Where no end group is shown, it is not given here.
For each record, check the reported MIC: if it is below 8 µM write condition met, else write condition not met.

{"columns": ["SUBSTANCE", "LABEL_VALUE"],
 "data": [
  ["VRRFAWWWAFLRR-NH2 [Tritrp3–Arg]", "condition met"],
  ["VKKFAWWWPFLKK-NH2 [Tritrp7–Lys]", "condition not met"],
  ["VKKFPWWWAFLKK-NH2 [Tritrp8–Lys]", "condition met"],
  ["ILPWKWPWWPWKK-NH2 [Indolicidin–Lys]", "condition not met"],
  ["VKKFAWWWAFLKK-NH2 [Tritrp3–Lys]", "condition met"]
]}

# ---- query substance ----
Prompt line: A record lists VKKFPWWWPFLKK-NH2 [Tritrp–Lys] . Is its MIC below 8 µM?
Response line: condition not met

* * *

Quick reference for MIC among some substances
tested on: Escherichia coli ATCC 25922; assay type: cell-based; settings: ATCC 25922, 16 h
Where no end group is shown, it is not given here.

{"columns": ["SUBSTANCE", "MIC"],
 "data": [
  ["VRRFAWWWPFLRR-NH2 [Tritrp7–Arg]", "8 µM"]
]}

Prompt line: With Escherichia coli ATCC 25922 as the test system, provide measured MIC for this substance: GIGRWLHSARRFGRAFVGEIMNS [Magainin2-F5W–Arg]
Response line: 8 µM

Prompt line: Report MIC on Escherichia coli ATCC 25922 for this entry: VRRFPWWWAFLRR-NH2 [Tritrp8–Arg]
Response line: 2 to 4 µM
